5-HT2A receptor (Homo sapiens) Ki data
Sequence (P28223 whole entry): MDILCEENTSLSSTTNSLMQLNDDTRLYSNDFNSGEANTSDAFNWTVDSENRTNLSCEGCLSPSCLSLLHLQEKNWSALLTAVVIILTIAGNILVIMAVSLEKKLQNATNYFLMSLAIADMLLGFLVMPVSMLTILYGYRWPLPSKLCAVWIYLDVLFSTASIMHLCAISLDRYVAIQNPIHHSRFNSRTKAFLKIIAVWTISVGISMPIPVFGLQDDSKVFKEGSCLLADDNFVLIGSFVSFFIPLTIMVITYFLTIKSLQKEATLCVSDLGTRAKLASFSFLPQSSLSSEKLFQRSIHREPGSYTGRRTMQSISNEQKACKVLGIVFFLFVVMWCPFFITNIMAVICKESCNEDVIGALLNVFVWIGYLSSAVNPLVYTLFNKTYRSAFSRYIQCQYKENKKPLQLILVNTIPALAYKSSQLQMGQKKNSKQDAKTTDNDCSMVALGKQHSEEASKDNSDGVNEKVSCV

Query: GET /values?readout=Ki&item= O=C([C@H]1C=C2c3cccc4[nH]cc(c34)C[C@H]2N(Cc2ccccc2)C1)N1CCCC1 [Compound 84a]
Reply: > 1230 nM

Query: So what does the record say about Ki for [2H]C([2H])(c1cccc(OC)c1)N1C[C@@H](C(=O)N(CC)CC)C=C2c3cccc4[nH]cc(c34)C[C@H]21 [Compound 68a] ?
Reply: > 1230 nM

Query: I am curious: what Ki value has been reported for CCN(CC)C(=O)[C@H]1C=C2c3cccc4[nH]cc(c34)C[C@H]2N(Cc2cccc(F)c2)C1 [Compound 52a] ?
Reply: > 1230 nM

Query: Query (compound): COc1cccc(CN2C[C@@H](C(=O)N3CCCC3)C=C3c4cccc5[nH]cc(c45)C[C@H]32)c1 [Compound 91a] ; field requested: Ki
Reply: > 1230 nM

Query: Could you share which Ki value was measured for CCN(CC)C(=O)[C@H]1C=C2c3cccc4[nH]cc(c34)C[C@H]2N(Cc2ccc3ccccc3c2)C1 [Compound 100a] ?
Reply: > 1230 nM

Query: Any idea what Ki was measured for CCN(C)C(=O)[C@H]1C=C2c3cccc4[nH]cc(c34)C[C@H]2N(Cc2cccc(OC)c2)C1 [Compound 92a] ?
Reply: > 1230 nM

---

target: 5-HT2B receptor (Homo sapiens, UniProt P41595); construct: expressed in transfected cells; host or cells: HEK293, stably transfected; test: cell-based; type: cell-based; conditions: HEK293, agonist, Ca2+ flux, HEK293, max dose; read-out: 5-HT2B % Act @ Max Dose
Sequence (P41595 whole entry): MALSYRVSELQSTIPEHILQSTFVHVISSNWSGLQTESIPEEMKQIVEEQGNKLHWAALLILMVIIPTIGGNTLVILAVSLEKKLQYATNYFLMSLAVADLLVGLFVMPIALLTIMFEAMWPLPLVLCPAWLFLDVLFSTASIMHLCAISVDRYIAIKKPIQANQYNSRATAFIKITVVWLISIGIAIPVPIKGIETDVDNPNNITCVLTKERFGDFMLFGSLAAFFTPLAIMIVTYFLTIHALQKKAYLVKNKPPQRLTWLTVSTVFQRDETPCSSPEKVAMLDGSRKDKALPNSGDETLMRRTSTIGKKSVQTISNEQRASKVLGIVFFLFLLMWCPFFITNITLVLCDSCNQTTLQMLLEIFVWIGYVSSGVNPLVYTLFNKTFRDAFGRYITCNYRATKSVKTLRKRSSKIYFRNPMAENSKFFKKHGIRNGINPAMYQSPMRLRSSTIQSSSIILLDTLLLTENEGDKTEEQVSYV
Record form. Attribute: Emax. Fill in for each entry.
Kindly answer with a numeric value in %, unit omitted.

Query: Entry under review: CCNC(=O)[C@@H]1C=C2c3cccc4[nH]cc(c34)C[C@H]2N(Cc2cccc(OC)c2)C1 . Reported Emax?
Reply: -0.31

Query: Reported Emax, molecule CCCN1C[C@H](C(=O)NC(CC)CC)C=C2c3cccc4[nH]cc(c34)C[C@H]21 : ____
Reply: 92.9

Query: Fill in the blank: the reported Emax of CCN(CC)C(=O)[C@@H]1C=C2c3cccc4[nH]cc(c34)C[C@H]2N(Cc2ccc(OC)cc2)C1 is ____.
Reply: 2.44

Query: State the recorded Emax for this entry: CCN(CC)C(=O)[C@@H]1C=C2c3cccc4[nH]cc(c34)C[C@H]2N(Cc2ccc(F)c(OC)c2)C1
Reply: 23.8

---

biological target: 5-HT2B receptor (Homo sapiens, UniProt P41595); construct: expressed in transfected cells; host or cells: HEK293, stably transfected; assay: cell-based; type: cell-based; settings: HEK293, agonist, Ca2+ flux, HEK293, max dose; read-out: 5-HT2B % Act @ Max Dose
Please provide measured Emax for the entries that follow.

Query: For the compound shown here, CCCN1C[C@H](C(=O)N[C@H](C)CC)C=C2c3cccc4[nH]cc(c34)C[C@H]21 , give the reported Emax.
Reply: 94.1%

Query: Using the record for CCN(CC)C(=O)[C@@H]1C=C2c3cccc4[nH]cc(c34)C[C@H]2N(CCF)C1 , report its Emax.
Reply: 85.5%

Query: Need Emax, item CCN(CC)C(=O)[C@@H]1C=C2c3cccc4[nH]cc(c34)C[C@H]2N(Cc2cccc3ccccc23)C1
Reply: 11.7%

Query: Given the entry CCN(CC)C(=O)[C@@H]1C=C2c3cccc4[nH]cc(c34)C[C@H]2N(CCc2ccccn2)C1 , report its measured Emax.
Reply: 12.5%

Query: Return reported Emax; argument: CCN(CC)C(=O)[C@@H]1C=C2c3cccc4[nH]cc(c34)C[C@H]2N(Cc2ccc(Cl)cc2)C1
Reply: 2.94%

Query: What value of Emax has been reported for the following compound? CCN(CC)C(=O)[C@@H]1C=C2c3cccc4[nH]cc(c34)C[C@H]2N(CC2CCCC2)C1
Reply: 12%

Query: Field request: Emax | item: O=C([C@@H]1C=C2c3cccc4[nH]cc(c34)C[C@H]2N(Cc2ccccc2)C1)N1CCCC1
Reply: 5.16%

Query: Emax for CCN(CC)C(=O)[C@@H]1C=C2c3cccc4[nH]cc(c34)C[C@H]2N(Cc2ccccc2)C1 ?
Reply: 13.3%

---

biological target: 5-HT1A receptor (Homo sapiens, UniProt P08908); construct: expressed in transfected cells; host or cells: CHO cells, stably transfected; test: cell-based; conditions: CHO, agonist, Ca2+ flux, CHO cells with Gα15, max dose; read-out: 5-HT1A % Act @ Max Dose
Sequence (P08908 whole entry): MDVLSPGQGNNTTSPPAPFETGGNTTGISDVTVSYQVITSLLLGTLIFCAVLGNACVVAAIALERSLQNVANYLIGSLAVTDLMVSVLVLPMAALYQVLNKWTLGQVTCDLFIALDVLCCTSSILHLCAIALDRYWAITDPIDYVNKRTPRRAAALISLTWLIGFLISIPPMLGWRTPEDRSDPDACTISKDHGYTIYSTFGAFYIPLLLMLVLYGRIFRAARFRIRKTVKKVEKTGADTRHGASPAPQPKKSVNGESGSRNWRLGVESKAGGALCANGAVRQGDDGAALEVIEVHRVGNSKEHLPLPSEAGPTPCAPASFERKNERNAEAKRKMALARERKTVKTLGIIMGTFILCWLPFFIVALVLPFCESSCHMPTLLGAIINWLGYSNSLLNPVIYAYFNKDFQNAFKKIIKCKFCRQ
So I've got a bunch of molecules here, and I need their Emax values.
Report the value in % with no unit label.

Query: Which Emax is reported with 5-HT1A receptor (Homo sapiens, UniProt P08908) for this entry: CCC(CC)NC(=O)[C@@H]1C=C2c3cccc4[nH]c(Br)c(c34)C[C@H]2N(C)C1 ?
Reply: 16.6

Query: Look up Emax with 5-HT1A receptor (Homo sapiens, UniProt P08908) for this molecule: CCN(CC)C(=O)[C@@H]1C=C2c3cccc4[nH]cc(c34)C[C@H]2N(Cc2ccc(F)c(OC)c2)C1
Reply: 53.1

Query: Form: Entry = CCN(CC)C(=O)[C@@H]1C=C2c3cccc4[nH]cc(c34)C[C@H]2N(CCc2ccc(OC)cc2)C1 | System = 5-HT1A receptor (Homo sapiens, UniProt P08908) | Emax = ____
Reply: 8.2

Query: Emax of CC[C@@H](C)NC(=O)[C@@H]1C=C2c3cccc4[nH]cc(c34)C[C@H]2N(Cc2cccc(OC)c2)C1 on 5-HT1A receptor (Homo sapiens, UniProt P08908)?
Reply: 63.2

Query: Form field - read-out: Emax; system: 5-HT1A receptor (Homo sapiens, UniProt P08908); submitted item: CCCN1C[C@H](C(=O)NC(CC)CC)C=C2c3cccc4[nH]cc(c34)C[C@H]21
Reply: 102

Query: Give recorded Emax with 5-HT1A receptor (Homo sapiens, UniProt P08908) for the following molecule: CCN(CC)C(=O)[C@@H]1C=C2c3cccc4[nH]cc(c34)C[C@H]2N(Cc2ccncc2)C1
Reply: 100

Query: Can you look up Emax on 5-HT1A receptor (Homo sapiens, UniProt P08908) for CCC[C@@H](C)NC(=O)[C@@H]1C=C2c3cccc4[nH]cc(c34)C[C@H]2N(CCC)C1 ?
Reply: 107

Query: Which Emax is reported with 5-HT1A receptor (Homo sapiens, UniProt P08908) for this entry: CCNC(=O)[C@@H]1C=C2c3cccc4[nH]cc(c34)C[C@H]2N(Cc2cccc(OC)c2)C1 ?
Reply: 88.4

Query: API: value(readout=Emax, system=5-HT1A receptor (Homo sapiens, UniProt P08908)) for record CCCN1C[C@H](C(=O)N(CC)CC)C=C2c3cccc4[nH]c(Br)c(c34)C[C@H]21
Reply: 101

Query: Record CCN(CC)C(=O)[C@@H]1C=C2c3cccc4[nH]cc(c34)C[C@H]2N(Cc2cocn2)C1 : what is its Emax with 5-HT1A receptor (Homo sapiens, UniProt P08908)?
Reply: 78.7

Query: Could you share what Emax was measured for CCN(CC)C(=O)[C@@H]1C=C2c3cccc4[nH]cc(c34)C[C@H]2N(CC2CC2)C1 , tested on 5-HT1A receptor (Homo sapiens, UniProt P08908)?
Reply: 83.1

Query: Give Emax (5-HT1A receptor (Homo sapiens, UniProt P08908)) of the following molecule: CCN(CC)C(=O)[C@@H]1C=C2c3cccc4[nH]cc(c34)C[C@H]2N(CCF)C1
Reply: 91.2

Query: Emax of CCCN1C[C@H](C(=O)N[C@H](C)CC)C=C2c3cccc4[nH]cc(c34)C[C@H]21 on 5-HT1A receptor (Homo sapiens, UniProt P08908)?
Reply: 108

Query: Param readout = Emax; param system = 5-HT1A receptor (Homo sapiens, UniProt P08908); param query = C[C@H]1C[C@H](C)N1C(=O)[C@@H]1C=C2c3cccc4[nH]cc(c34)C[C@H]2N(Cc2ccccc2)C1 ; response: value
Reply: 58.2

Query: Under 5-HT1A receptor (Homo sapiens, UniProt P08908): Emax value of C=CCN1C[C@H](C(=O)N2[C@@H](C)C[C@@H]2C)C=C2c3cccc4[nH]cc(c34)C[C@H]21 ?
Reply: 90.8

Query: # get_value(readout= Emax, system= 5-HT1A receptor (Homo sapiens, UniProt P08908)) for CCN(CC)C(=O)[C@@H]1C=C2c3cccc4[nH]cc(c34)C[C@H]2N(Cc2ccc(F)cc2)C1
Reply: 14.3

Query: Tell me reported Emax for CCCN1C[C@@H](C(=O)N[C@H](C)CC)C=C2c3cccc4[nH]cc(c34)C[C@H]21 , tested with 5-HT1A receptor (Homo sapiens, UniProt P08908).
Reply: 108

---

target: 5-HT2C receptor (Homo sapiens); experiment: cell-based; details: agonist, Ca2+ flux, Eurofins DiscoverX protocol, max dose; read-out: 5-HT2C % Act @ Max Dose
Sequence (P28335 33-458): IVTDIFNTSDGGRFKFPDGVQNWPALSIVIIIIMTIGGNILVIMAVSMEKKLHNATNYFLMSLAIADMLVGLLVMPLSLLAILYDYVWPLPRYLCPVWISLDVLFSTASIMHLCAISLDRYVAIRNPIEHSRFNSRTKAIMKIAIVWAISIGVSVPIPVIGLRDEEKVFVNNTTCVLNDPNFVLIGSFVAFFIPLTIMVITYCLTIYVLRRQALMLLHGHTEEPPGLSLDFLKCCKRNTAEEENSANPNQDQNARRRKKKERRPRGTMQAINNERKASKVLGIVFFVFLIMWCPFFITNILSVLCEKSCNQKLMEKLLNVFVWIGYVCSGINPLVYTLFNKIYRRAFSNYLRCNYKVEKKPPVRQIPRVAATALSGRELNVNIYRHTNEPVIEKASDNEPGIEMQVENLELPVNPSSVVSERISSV
Kindly supply the reported Emax values for the records listed here.
Give the quantity in %, number only.

Query: Please look up its Emax: CCN(CC)C(=O)[C@@H]1C=C2c3cccc4[nH]c(Br)c(c34)C[C@H]2N(CCC(F)(F)F)C1
Reply: 17.9

Query: Fill blank: measured Emax of the molecule CCN(CC)C(=O)[C@@H]1C=C2c3cccc4[nH]cc(c34)C[C@H]2N(Cc2cccc(OC)c2)C1 is ____.
Reply: 7.28

Query: So what's the measured Emax for this one? C=CCN1C[C@H](C(=O)N[C@H](C)CC)C=C2c3cccc4[nH]cc(c34)C[C@H]21
Reply: 108

Query: What value of Emax has been reported for the following molecule? CCCN1C[C@H](C(=O)N[C@H](C)CC)C=C2c3cccc4[nH]cc(c34)C[C@H]21
Reply: 119

Query: # get_value(readout='Emax', item= C=CCN1C[C@@H](C(=O)N[C@H](C)CC)C=C2c3cccc4[nH]cc(c34)C[C@H]21 )
Reply: 13.3

Query: Look up Emax: CC[C@@H](C)NC(=O)[C@@H]1C=C2c3cccc4[nH]cc(c34)C[C@H]2N(CC)C1
Reply: 114

Query: Which Emax value belongs to CCN(CC)C(=O)[C@@H]1C=C2c3cccc4[nH]cc(c34)C[C@H]2N(Cc2ccc(F)c(F)c2)C1 ?
Reply: 8.36
